Compiled from multiple publications: Ki readings for Plasminogen (Homo sapiens).
Recorded Endpoint: Ki (µM)

[
  {
    "Compound": "CN(CC(=O)N[C@@H](CCCCN)B(O)O)C(=O)CCc1ccccc1",
    "Target Entity": "Plasminogen (Homo sapiens)",
    "Numeric Readout": 0.25
  },
  {
    "Compound": "N=C(N)N1CCc2ccc(OC(C(=O)O)c3ccc(OC4CCNCC4)cc3)cc2C1 (configuration not stated)",
    "Target Entity": "Plasminogen (Homo sapiens)",
    "Numeric Readout": 25
  }
]

a = N=C(N)NCc1ccc(C2CC/C(=C/I)OC2=O)cc1 (configuration not stated)
b = N=C(N)c1cccc(CN2CC[C@H](NS(=O)(=O)c3cc4nc(Cl)ccc4s3)C2=O)c1
input: Between a and b , whose measured Ki reads higher? Refer to your chosen entry by its label in the reply.
output: b

P = CC(C)COC(=O)OC[C@@H](NS(=O)(=O)Cc1ccccc1)C(=O)N[C@@H](C)C(=O)NCc1ccc(C(=N)N)cc1
Q = N=C(N)c1cccc(C[C@H](NS(=O)(=O)c2ccc(C3CCCCC3)cc2)C(=O)N2CCN(C(=N)N)CC2)c1
input: Between P and Q , whose measured Ki reads higher? Refer to your chosen entry by its label in the reply.
output: Q

1 = N=C(N)NCCC(=O)N1CCN(C(=O)[C@H](Cc2cccc(C(=N)N)c2)NS(=O)(=O)c2ccc3c(c2)C(=O)c2ccccc2C3=O)CC1
2 = N=C(N)c1ccc2cccc(Nc3ncccn3)c2c1
input: Between 1 and 2 , whose measured Ki reads higher? Refer to your chosen entry by its label in the reply.
output: 1
